Assay: Tumor cell line cytotoxicity of flavonoid dimers, LCC6MDR
Type: cell-based, human
Conditions: human, LCC6MDR cells, IC50 of compound alone

# compound, IC50 at 72 h
measured = [
    ("O=c1cc(-c2ccc(OCCOCCN(CCOCCOc3ccc(-c4cc(=O)c5ccccc5o4)cc3)Cc3cccc(F)c3)cc2)oc2ccccc12", "> 100 µM"),
    ("CS(=O)(=O)N(CCOCCOc1ccc(-c2cc(=O)c3ccccc3o2)cc1)CCOCCOc1ccc(-c2cc(=O)c3ccccc3o2)cc1", "42.6 µM"),
    ("O=c1cc(-c2ccc(OCCOCCN(CCOCCOc3ccc(-c4cc(=O)c5ccccc5o4)cc3)Cc3ccc(C(F)(F)F)cc3)cc2)oc2ccccc12", "> 100 µM"),
    ("O=c1cc(-c2ccc(OCCOCCN(CCOCCOc3ccc(-c4cc(=O)c5ccccc5o4)cc3)Cc3ccc([N+](=O)[O-])cc3)cc2)oc2ccccc12", "> 90 µM"),
    ("CC(C)(C)CC(=O)N(CCOCCOc1ccc(-c2cc(=O)c3ccccc3o2)cc1)CCOCCOc1ccc(-c2cc(=O)c3ccccc3o2)cc1", "> 100 µM"),
    ("O=c1cc(-c2ccc(OCCOCCNCCOCCOc3ccc(-c4cc(=O)c5ccccc5o4)cc3)cc2)oc2ccccc12 [Compound 12a]", "2.4 µM"),
    ("Nc1ccc(CN(CCOCCOc2ccc(-c3cc(=O)c4ccccc4o3)cc2)CCOCCOc2ccc(-c3cc(=O)c4ccccc4o3)cc2)cc1", "> 50 µM"),
    ("O=C(c1ccccc1)N(CCOCCOc1ccc(-c2cc(=O)c3ccccc3o2)cc1)CCOCCOc1ccc(-c2cc(=O)c3ccccc3o2)cc1 [Compound 23d]", "> 100 µM"),
    ("O=c1cc(-c2ccc(OCCOCCN(CCOCCOc3ccc(-c4cc(=O)c5ccccc5o4)cc3)c3ccccc3)cc2)oc2ccccc12 [Compound 64h]", "> 100 µM"),
    ("O=c1cc(-c2ccc(OCCOCCN(CCOCCOc3ccc(-c4cc(=O)c5ccccc5o4)cc3)Cc3ccc(F)cc3)cc2)oc2ccccc12", "> 83 µM"),
    ("Cc1cccc(CN(CCOCCOc2ccc(-c3cc(=O)c4ccccc4o3)cc2)CCOCCOc2ccc(-c3cc(=O)c4ccccc4o3)cc2)c1", "> 66 µM"),
    ("O=c1cc(-c2ccc(OCCOCCN(CCOCCOc3ccc(-c4cc(=O)c5ccccc5o4)cc3)Cc3ccnc(Br)c3)cc2)oc2ccccc12 [Compound 64b]", "> 100 µM"),
    ("O=c1cc(-c2ccc(OCCOCCN(CCOCCOc3ccc(-c4cc(=O)c5ccccc5o4)cc3)Cc3ccccc3Cl)cc2)oc2ccccc12", "> 100 µM"),
]

* * *

Test: Cytotoxicity of flavonoid dimers, L929 mouse fibroblast
Type: cell-based
Details: mouse, L929 fibroblast cells, IC50 of compound alone, 72 hrs, mouse fibroblast

# molecule, sign.qualifier, IC50 at 72 h (µM)
rows = [
    ("O=c1cc(-c2ccc(OCCOCCN(CCOCCOc3ccc(-c4cc(=O)c5ccccc5o4)cc3)Cc3ccc(OC(F)(F)F)cc3)cc2)oc2ccccc12 [Compound 42b]", ">", 83),
    ("Cc1ccc(CN(CCOCCOc2ccc(-c3cc(=O)c4ccccc4o3)cc2)CCOCCOc2ccc(-c3cc(=O)c4ccccc4o3)cc2)cc1", "=", 66.4),
    ("O=c1cc(-c2ccc(OCCOCCN(CCOCCOc3ccc(-c4cc(=O)c5ccccc5o4)cc3)Cc3ccc(Cl)cc3)cc2)oc2ccccc12", ">", 78),
    ("CCc1ccc(CN(CCOCCOc2ccc(-c3cc(=O)c4ccccc4o3)cc2)CCOCCOc2ccc(-c3cc(=O)c4ccccc4o3)cc2)cc1", "=", 25.4),
    ("Nc1ccc(CN(CCOCCOc2ccc(-c3cc(=O)c4ccccc4o3)cc2)CCOCCOc2ccc(-c3cc(=O)c4ccccc4o3)cc2)cc1", ">", 50),
    ("COC(=O)c1ccc(CN(CCOCCOc2ccc(-c3cc(=O)c4ccccc4o3)cc2)CCOCCOc2ccc(-c3cc(=O)c4ccccc4o3)cc2)cc1", "=", 11.4),
]

* * *

Tested on: Raw264.7 cells
Experiment: Cytotoxicity, mouse macrophage Raw264.7
Assay type: cell-based
Details: 72 hrs
# IC50 listing for each entry below

# compound, display.unit, sign.qualifier, IC50
measured = [
    ("O=C(O)CCC(=O)N(CCOCCOc1ccc(-c2cc(=O)c3ccccc3o2)cc1)CCOCCOc1ccc(-c2cc(=O)c3ccccc3o2)cc1 [Compound 23a]", "µM", "=", 65),
    ("O=c1cc(-c2ccc(OCCOCCN(CCO)CCOCCOc3ccc(-c4cc(=O)c5ccccc5o4)cc3)cc2)oc2ccccc12", "µM", "=", 6.4),
    ("CCN(CCOCCOc1ccc(-c2cc(=O)c3ccccc3o2)cc1)CCOCCOc1ccc(-c2cc(=O)c3ccccc3o2)cc1", "µM", "=", 8.3),
    ("Cc1ccc2oc(-c3ccc(OCCOCCN(CCOCCOc4ccc(-c5cc(=O)c6cc(C)ccc6o5)cc4)C(=O)OC(C)(C)C)cc3)cc(=O)c2c1 [Compound 17c]", "µM", ">", 100),
]

* * *

Test: Cytotoxicity of flavonoid dimers, L929 mouse fibroblast
Assay type: cell-based
Settings: mouse, L929 fibroblast cells, IC50 of compound alone, 72 hrs, mouse fibroblast
IC50 at 72 h overview
assay.metric: IC50 at 72 h

# molecule, assay.metric, result
measured = [
    ("O=c1cc(-c2ccc(OCCOCCN(CCOCCOc3ccc(-c4cc(=O)c5ccccc5o4)cc3)Cc3cccc(F)c3)cc2)oc2ccccc12", "IC50 at 72 h", "> 87 µM"),
    ("O=c1cc(-c2ccc(OCCOCCN(CCOCCOc3ccc(-c4cc(=O)c5ccccc5o4)cc3)Cc3ccc4c(c3)OCO4)cc2)oc2ccccc12 [Compound 42e]", "IC50 at 72 h", "> 100 µM"),
    ("O=c1cc(-c2ccc(OCCOCCNCCOCCOc3ccc(-c4cc(=O)c5cc(F)ccc5o4)cc3)cc2)oc2ccc(F)cc12 [Compound 12f]", "IC50 at 72 h", "5.7 µM"),
    ("CC(=O)Oc1ccc(CN(CCOCCOc2ccc(-c3cc(=O)c4ccccc4o3)cc2)CCOCCOc2ccc(-c3cc(=O)c4ccccc4o3)cc2)cc1 [Compound 42c]", "IC50 at 72 h", "4.5 µM"),
    ("Cc1cccc(CN(CCOCCOc2ccc(-c3cc(=O)c4ccccc4o3)cc2)CCOCCOc2ccc(-c3cc(=O)c4ccccc4o3)cc2)c1", "IC50 at 72 h", "55 µM"),
    ("O=c1cc(-c2ccc(OCCOCCN(CCOCCOc3ccc(-c4cc(=O)c5ccccc5o4)cc3)Cc3ccc4ccccc4n3)cc2)oc2ccccc12 [Compound 64g]", "IC50 at 72 h", "8.5 µM"),
    ("O=c1cc(-c2ccc(OCCOCCN(CCOCCOc3ccc(-c4cc(=O)c5ccccc5o4)cc3)Cc3nc4ccccc4[nH]3)cc2)oc2ccccc12", "IC50 at 72 h", "> 70 µM"),
    ("CS(=O)(=O)N(CCOCCOc1ccc(-c2cc(=O)c3ccccc3o2)cc1)CCOCCOc1ccc(-c2cc(=O)c3ccccc3o2)cc1", "IC50 at 72 h", "13.4 µM"),
    ("O=c1cc(-c2ccc(OCCOCCN(CCOCCOc3ccc(-c4cc(=O)c5ccccc5o4)cc3)Cc3ccc(O)cc3)cc2)oc2ccccc12 [Compound 42d]", "IC50 at 72 h", "4.8 µM"),
    ("O=c1cc(-c2ccc(OCCOCCN(CCOCCOc3ccc(-c4cc(=O)c5ccccc5o4)cc3)Cc3ccc(F)cc3F)cc2)oc2ccccc12", "IC50 at 72 h", "> 100 µM"),
    ("O=c1cc(-c2ccc(OCCOCCN(CCOCCOc3ccc(-c4cc(=O)c5ccccc5o4)cc3)Cc3cccc(-c4ccccc4)c3)cc2)oc2ccccc12", "IC50 at 72 h", "> 100 µM"),
    ("O=c1cc(-c2ccc(OCCOCCN(CCOCCOc3ccc(-c4cc(=O)c5ccccc5o4)cc3)Cc3ccc(F)c(F)c3)cc2)oc2ccccc12", "IC50 at 72 h", "42.2 µM"),
    ("O=c1cc(-c2ccc(OCCOCCN(CCOCCOc3ccc(-c4cc(=O)c5ccccc5o4)cc3)Cc3ccc(-c4ccccc4)cc3)cc2)oc2ccccc12", "IC50 at 72 h", "> 69 µM"),
    ("O=c1cc(-c2ccc(OCCOCCN(CCOCCOc3ccc(-c4cc(=O)c5ccccc5o4)cc3)Cc3cc(F)c(F)c(F)c3)cc2)oc2ccccc12", "IC50 at 72 h", "> 100 µM"),
    ("COc1cccc(CN(CCOCCOc2ccc(-c3cc(=O)c4ccccc4o3)cc2)CCOCCOc2ccc(-c3cc(=O)c4ccccc4o3)cc2)c1", "IC50 at 72 h", "> 100 µM"),
    ("O=c1cc(-c2ccc(OCCOCCN(CCOCCOc3ccc(-c4cc(=O)c5ccccc5o4)cc3)Cc3ccnc4ccccc34)cc2)oc2ccccc12 [Compound 64f]", "IC50 at 72 h", "> 100 µM"),
    ("N#Cc1ccc(CN(CCOCCOc2ccc(-c3cc(=O)c4ccccc4o3)cc2)CCOCCOc2ccc(-c3cc(=O)c4ccccc4o3)cc2)cc1", "IC50 at 72 h", "25.2 µM"),
    ("O=c1cc(-c2ccc(OCCOCCNCCOCCOc3ccc(-c4cc(=O)c5ccccc5o4)cc3)cc2)oc2ccccc12 [Compound 12a]", "IC50 at 72 h", "5.9 µM"),
    ("O=c1cc(-c2ccc(OCCOCCN(CCOCCOc3ccc(-c4cc(=O)c5ccccc5o4)cc3)Cc3ccccc3F)cc2)oc2ccccc12", "IC50 at 72 h", "> 100 µM"),
    ("CC(C)(C)CC(=O)N(CCOCCOc1ccc(-c2cc(=O)c3ccccc3o2)cc1)CCOCCOc1ccc(-c2cc(=O)c3ccccc3o2)cc1", "IC50 at 72 h", "> 100 µM"),
    ("COc1cc(CN(CCOCCOc2ccc(-c3cc(=O)c4ccccc4o3)cc2)CCOCCOc2ccc(-c3cc(=O)c4ccccc4o3)cc2)cc(OC)c1", "IC50 at 72 h", "> 100 µM"),
    ("O=c1c(OCc2ccccc2)c(-c2ccc(OCCOCCNCCOCCOc3ccc(-c4oc5ccccc5c(=O)c4OCc4ccccc4)cc3)cc2)oc2ccccc12 [Compound 12e]", "IC50 at 72 h", "4.2 µM"),
    ("O=c1cc(-c2ccc(OCCOCCN(CCOCCOc3ccc(-c4cc(=O)c5ccccc5o4)cc3)Cc3ccc(C(F)(F)F)cc3)cc2)oc2ccccc12", "IC50 at 72 h", "32.7 µM"),
    ("O=c1cc(-c2ccc(OCCOCCN(CCOCCOc3ccc(-c4cc(=O)c5ccccc5o4)cc3)Cc3ccncc3)cc2)oc2ccccc12", "IC50 at 72 h", "26.4 µM"),
]
